Source of measurements: paper PMC5762309

- measurement-target: KIT V559D (Homo sapiens, UniProt P10721, V559D)
- assay-method-text: KIT auto-phosphorylation in transformed BaF3 cells
- condition-context: EC50 pY823 auto-phosphorylation, 2h
- Sequence (P10721 546-976 V559D): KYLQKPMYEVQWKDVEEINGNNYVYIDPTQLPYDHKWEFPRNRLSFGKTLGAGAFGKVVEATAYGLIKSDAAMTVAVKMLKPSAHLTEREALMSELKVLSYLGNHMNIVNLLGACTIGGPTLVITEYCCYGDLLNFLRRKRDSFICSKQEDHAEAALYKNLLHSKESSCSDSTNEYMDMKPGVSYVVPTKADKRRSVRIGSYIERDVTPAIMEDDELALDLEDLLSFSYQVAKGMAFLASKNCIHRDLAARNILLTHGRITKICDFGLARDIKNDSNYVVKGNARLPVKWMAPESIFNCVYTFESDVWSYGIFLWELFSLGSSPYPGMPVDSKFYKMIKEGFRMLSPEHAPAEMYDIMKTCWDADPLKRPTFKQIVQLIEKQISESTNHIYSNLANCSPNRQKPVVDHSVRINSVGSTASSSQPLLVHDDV
endpoint-name: pEC50
API: returns pEC50 as number; meaning -log10 of concentration in mol/L.

Short answer for COc1cc(C(=O)NCC(=O)Nc2ccc3c(/C=C/c4ccccn4)n[nH]c3c2)cc(OC)c1OC [CHMFL-KIT-031] : pEC50 was 6.93

====

- measurement-target: KIT V559D (Homo sapiens, UniProt P10721, V559D)
- assay-method-text: Kd determination by MST
- condition-context: purified protein
- Sequence (P10721 545-976 V559D): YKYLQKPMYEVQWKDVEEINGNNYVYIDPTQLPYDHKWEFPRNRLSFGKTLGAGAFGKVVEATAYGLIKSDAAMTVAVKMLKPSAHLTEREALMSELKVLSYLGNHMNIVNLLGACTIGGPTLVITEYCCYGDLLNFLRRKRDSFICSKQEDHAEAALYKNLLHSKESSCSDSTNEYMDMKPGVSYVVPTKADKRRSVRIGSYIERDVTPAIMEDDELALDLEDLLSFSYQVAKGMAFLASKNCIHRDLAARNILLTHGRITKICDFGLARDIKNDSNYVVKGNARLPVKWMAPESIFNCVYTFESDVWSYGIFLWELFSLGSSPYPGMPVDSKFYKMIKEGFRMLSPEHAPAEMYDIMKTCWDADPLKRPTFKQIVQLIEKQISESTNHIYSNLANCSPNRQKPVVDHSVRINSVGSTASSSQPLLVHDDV
endpoint-name: pKd
Reminder that pKd is minus the log10 of a molar concentration.

Note to self: pKd recorded for COc1cc(C(=O)NCC(=O)Nc2ccc3c(/C=C/c4ccccn4)n[nH]c3c2)cc(OC)c1OC was 6.58
